- assayed.target: human GLP-1R (Homo sapiens)
- Sequence (P43220 24-463): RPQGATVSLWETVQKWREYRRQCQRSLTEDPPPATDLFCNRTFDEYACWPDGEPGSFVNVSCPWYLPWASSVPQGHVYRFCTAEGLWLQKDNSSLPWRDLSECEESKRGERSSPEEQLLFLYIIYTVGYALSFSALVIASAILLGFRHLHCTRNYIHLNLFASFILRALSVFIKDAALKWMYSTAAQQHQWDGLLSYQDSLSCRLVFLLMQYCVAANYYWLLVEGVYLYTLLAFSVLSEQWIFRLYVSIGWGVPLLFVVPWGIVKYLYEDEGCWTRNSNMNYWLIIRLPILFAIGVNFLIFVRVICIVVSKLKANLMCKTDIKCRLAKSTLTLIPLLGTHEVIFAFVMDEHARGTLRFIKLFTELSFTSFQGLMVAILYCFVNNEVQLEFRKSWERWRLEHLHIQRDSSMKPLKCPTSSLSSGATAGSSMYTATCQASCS
- method.description: Human GLP-1 Receptor HEK293 cell cAMP assay, 581 fmol/mg GLP-1R expression density
- Type: cell-based
- Design: expressed in transfected cells; host or cells: HEK293 clonal cell line
- condition.info: HEK293 cell line with 581 fmol/mg expression density of GLP-1R; percent of maximal response to GLP-1(7-36)NH2; arithmetic mean; read-out: Emax % (SEM, n), intracellular cAMP response
result.type: Emax (%)

>>> df
                   compound_structure_string  observed_measurement
 0  CCn1cncc1Cn1c(Cc2ccc3cc2OCCCc2cc(C#N)ccc2COc2cccc-3n2)nc2c(OC)cc(C(=O)O)cc21                   101
 1  COCCOc1cc(C(=O)O)cc2c1nc(Cc1cc(F)c3cc1COCc1cc(-c4ccc(=O)n(C)c4)ccc1COc1cccc-3n1)n2C[C@@H]1CCO1                  93.9
 2  CS(=O)(=O)c1ccc(-c2ccc3c(c2)CCCOc2cc(ccc2Cc2nc4ccc(C(=O)O)cc4n2C[C@@H]2CCO2)-c2cccc(n2)OC3)cc1                   112
 3  O=C(O)c1ccc2nc(Cc3ccc4cc3OCCCc3cc(-c5cnn(C6CC6)c5)ccc3COc3cccc-4n3)n(C[C@@H]3CCO3)c2c1                   112
 4  Nc1cc(-c2ccc3c(c2)CCCOc2cc(ccc2Cc2nc4ccc(C(=O)O)cc4n2C[C@@H]2CCO2)-c2cccc(n2)OC3)ccn1                  99.8
 5  O=C(O)c1ccc2nc(Cc3ccc4cc3OCCCc3cc(-c5cnn(CC6COC6)c5)ccc3COc3cccc-4n3)n(C[C@@H]3CCO3)c2c1                   104
 6  COCCOc1cc(C(=O)O)cc2c1nc(Cc1cc(F)c3cc1COCc1cc(Cl)ccc1COc1cccc-3n1)n2C[C@@H]1CCO1                   117
 7  O=C(O)c1ccc2nc(Cc3ccc4cc3OCCCc3cc(-c5cnn(C6COC6)c5)ccc3COc3cccc-4n3)n(C[C@@H]3CCO3)c2c1                  99.9
 8  N#Cc1ccc2c(c1)CCOCc1cc(ccc1Cc1nc3c(F)cc(C(=O)O)cc3n1C[C@@H]1CCO1)-c1cccc(n1)OC2                   110
 9  O=C(O)c1ccc2nc(Cc3ccc4cc3OCCCc3cc(Cl)ccc3COc3cccc-4n3)n(C[C@@H]3CCO3)c2c1                   102
10  COCCOc1cc(C(=O)O)cc2c1nc(Cc1cc(F)c3cc1COCc1cc(C#N)ccc1COc1cccc-3n1)n2C[C@@H]1CCO1                   115
11  Cc1cn(-c2ccc3c(c2)CCCOc2cc(ccc2Cc2nc4ccc(C(=O)O)cc4n2C[C@@H]2CCO2)-c2cccc(n2)OC3)cn1                   106
12  COc1cc(C(=O)O)cc2c1nc(Cc1ccc3cc1OCCCc1cc(C#N)ccc1COc1cccc-3n1)n2C[C@@H]1CCO1                   109
13  N#Cc1ccc2c(c1)CCCOc1cc(c(F)cc1Cc1nc3ccc(C(=O)O)cc3n1C[C@@H]1CCO1)-c1cccc(n1)NC2                  90.5
